Would you mind telling me the reported PI3Ka IC50 of each entry?
target: PI3Kα (p110α/p85α) (Homo sapiens (Human), UniProt P42336); assay: PI3Kα enzymatic test by measuring the consumption of ATP; format: biochemical
Sequence (P42336 whole entry): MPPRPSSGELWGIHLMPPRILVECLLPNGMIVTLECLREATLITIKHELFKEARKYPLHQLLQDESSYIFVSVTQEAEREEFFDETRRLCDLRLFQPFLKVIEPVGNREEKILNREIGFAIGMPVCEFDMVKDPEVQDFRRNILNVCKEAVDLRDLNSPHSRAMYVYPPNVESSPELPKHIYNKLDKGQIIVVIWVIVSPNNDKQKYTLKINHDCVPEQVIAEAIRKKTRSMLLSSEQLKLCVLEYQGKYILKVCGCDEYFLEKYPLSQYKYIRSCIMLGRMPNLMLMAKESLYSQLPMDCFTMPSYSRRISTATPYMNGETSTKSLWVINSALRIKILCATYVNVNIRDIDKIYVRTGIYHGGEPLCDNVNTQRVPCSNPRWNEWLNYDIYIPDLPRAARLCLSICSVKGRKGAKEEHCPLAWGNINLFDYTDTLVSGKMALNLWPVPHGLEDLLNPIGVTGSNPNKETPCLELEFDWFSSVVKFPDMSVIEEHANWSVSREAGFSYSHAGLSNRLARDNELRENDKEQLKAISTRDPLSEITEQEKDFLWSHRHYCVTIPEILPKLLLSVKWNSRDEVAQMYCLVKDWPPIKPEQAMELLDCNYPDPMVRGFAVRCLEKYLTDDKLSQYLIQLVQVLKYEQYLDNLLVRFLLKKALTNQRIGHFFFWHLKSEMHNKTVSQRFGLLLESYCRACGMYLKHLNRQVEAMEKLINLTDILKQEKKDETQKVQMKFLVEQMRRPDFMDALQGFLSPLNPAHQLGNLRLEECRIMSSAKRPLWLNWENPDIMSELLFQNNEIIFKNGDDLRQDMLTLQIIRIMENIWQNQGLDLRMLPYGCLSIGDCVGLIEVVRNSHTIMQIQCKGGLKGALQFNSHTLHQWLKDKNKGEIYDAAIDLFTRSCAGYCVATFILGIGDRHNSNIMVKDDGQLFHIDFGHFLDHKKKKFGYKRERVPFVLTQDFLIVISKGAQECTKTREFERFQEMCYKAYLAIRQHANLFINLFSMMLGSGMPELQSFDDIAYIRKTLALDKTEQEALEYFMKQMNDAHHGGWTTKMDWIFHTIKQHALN
Sequence (P27986 whole entry partner): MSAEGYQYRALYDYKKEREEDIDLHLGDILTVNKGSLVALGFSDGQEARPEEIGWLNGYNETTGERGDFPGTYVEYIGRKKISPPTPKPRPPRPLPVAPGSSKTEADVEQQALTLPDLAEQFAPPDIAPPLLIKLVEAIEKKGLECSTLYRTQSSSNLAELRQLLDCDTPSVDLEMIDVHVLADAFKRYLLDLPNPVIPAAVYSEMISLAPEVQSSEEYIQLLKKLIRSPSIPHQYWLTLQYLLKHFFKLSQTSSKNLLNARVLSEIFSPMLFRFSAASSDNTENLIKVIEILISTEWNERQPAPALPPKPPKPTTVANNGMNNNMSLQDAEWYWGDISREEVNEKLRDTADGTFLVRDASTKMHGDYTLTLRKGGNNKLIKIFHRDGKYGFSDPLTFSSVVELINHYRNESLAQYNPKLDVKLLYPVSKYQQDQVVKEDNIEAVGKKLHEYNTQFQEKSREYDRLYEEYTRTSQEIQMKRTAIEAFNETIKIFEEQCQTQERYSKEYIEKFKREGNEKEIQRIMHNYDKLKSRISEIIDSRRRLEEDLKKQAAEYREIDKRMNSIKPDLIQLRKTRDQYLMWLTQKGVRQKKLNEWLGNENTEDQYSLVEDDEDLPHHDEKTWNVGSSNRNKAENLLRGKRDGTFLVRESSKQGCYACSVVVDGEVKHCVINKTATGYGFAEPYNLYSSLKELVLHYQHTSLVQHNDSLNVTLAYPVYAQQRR
Your answer is read as µM, so omit the unit and give the number.

Data request, read-out PI3Ka IC50, for CCN1CC(C)(C)Oc2nc(N3CC4CCC(C3)O4)nc(-c3ccc(NC(=O)Nc4ccc(C(=O)N5CCC(N(C)C)CC5)cc4)cc3)c2C1=O [Example 177]
0.087

Endpoint output: PI3Ka IC50 of COCCN1CC(C)(C)Oc2nc(N3CCOC[C@@H]3C)nc(-c3ccc(NC(=O)Nc4ccon4)cc3)c2C1=O [Example 180] . Value?
0.604

Which PI3Ka IC50 reading was recorded for the molecule CN1CC(C)(C)Oc2nc(N3C4CCC3COC4)nc(-c3ccc(NC(=O)Nc4ccncc4)cc3)c2C1=O [Example 68] ?
1.36

Query: PI3Ka IC50; subject: CCN1CC(C)(C)Oc2nc(N3CC4CCC(C3)O4)nc(-c3ccc(NC(=O)NCCO)cc3)c2C1=O [Example 117]
7.41

For the molecule CCN1CC(C)(C)Oc2nc(N3C4CCC3COC4)nc(-c3ccc(NC(=O)OCCO)cc3)c2C1=O [Example 65] , what PI3Ka IC50 is on record?
22.4

What measured PI3Ka IC50 goes with CCN1CC(C)(C)Oc2nc(N3CC4CCC(C3)O4)nc(-c3ccc(NC(=O)Nc4ccc(N5CCN(C)CC5)nc4)c(F)c3)c2C1=O [Example 195] ?
6.8

I'd like to know its PI3Ka IC50. The molecule in question is CN1CC(C)(C)Oc2nc(N3CC4CCC(C3)O4)nc(-c3ccc(NC(=O)Nc4ccncc4F)cc3)c2C1=O [Example 85]
1.95

# query: PI3Ka IC50 of entry Cc1cc(NC(=O)Nc2ccc(-c3nc(N4CC5CCC(C4)O5)nc4c3C(=O)N(C3CCOCC3)CC(C)(C)O4)cc2)no1 [Example 15]
5.3

Given CCN1CC(C)(C)Oc2nc(N3CCOC[C@@H]3C)nc(-c3ccc(NC(=O)Nc4ccc(N5CC6CCC(C5)O6)nc4)c(F)c3)c2C1=O [Example 258] , state its recorded PI3Ka IC50.
2.94

May I ask what PI3Ka IC50 has been recorded for CNC(=O)Nc1ccc(-c2nc(N3CCOC[C@@H]3C)nc3c2C(=O)N(CCOC)CC(C)(C)O3)cc1F [Example 225] ?
1.36

// query PI3Ka IC50 value for entry CCN1CC(C)(C)Oc2nc(N3CC4CCC(C3)O4)nc(-c3ccc(NC(=O)Nc4ccc(CN5CCCCC5)cc4)cc3)c2C1=O [Example 203]
9.61

Fill in the blank: the reported PI3Ka IC50 of CCNC(=O)Nc1ccc(-c2nc(N3CC4CCC(C3)O4)nc3c2C(=O)N(C2CCN(C)CC2)CC(C)(C)O3)cc1 [Example 132] is ____.
4.32

Fill in: PI3Ka IC50 of CCN1CC(C)(C)Oc2nc(N3CCOC[C@@H]3C)nc(-c3ccc(NC(=O)NC4CC4)c(F)c3)c2C1=O [Example 150] is ___
5.8

May I ask what PI3Ka IC50 has been recorded for CCN1CC(C)(C)Oc2nc(N3CCOCC3)nc(-c3ccc(N)cc3)c2C1=O [Example 102] ?
3.61
